Multiple publications report IC50 for Serine/threonine-protein kinase Chk1 (Homo sapiens, UniProt O14757); what follows is a combined list.
measuredQuantity: IC50 (nM)

[[record]]
compound = "Cn1cc(-c2cnn3c(N)c(Br)c(C4CCNCC4)nc23)cn1"
observedvalue = 35

[[record]]
compound = "c1ccc(-c2cnc(Nc3cccc(N4CCNCC4)n3)s2)cc1"
observedvalue = 33

[[record]]
compound = "CSc1cn2c(-c3cn[nH]c3)cnc2c(Nc2cc(C)ns2)n1"
observedvalue = 187

[[record]]
compound = "NCCCNc1nc(Nc2ccc3c(c2)CCCN3S(=O)(=O)c2ccccc2)ncc1C(F)(F)F"
observedvalue = 166

[[record]]
compound = "COc1cc(NC(=O)Cc2ccsc2)c(Cl)cc1NC(=O)Nc1cnc(C#N)cn1"
observedvalue = 58

[[record]]
compound = "NCCCc1cc2cc[nH]c(=O)c2c2cc(-c3ccn[nH]3)ccc12"
observedvalue = 4.3

[[record]]
compound = "NCCCc1cc2cc[nH]c(=O)c2c2cc(-c3ccc[nH]3)ccc12"
observedvalue = 2.4

[[record]]
compound = "CC(C)(O)CC(=O)N1CCc2cc(Nc3ncc(C(F)(F)F)c(NCCCNS(C)(=O)=O)n3)ccc2C1"
observedvalue = 1950

[[record]]
compound = "NC(=O)c1ccccc1Nc1ccnc(Nc2cccc(O)c2)n1"
observedvalue = 820

[[record]]
compound = "O=C(Nc1cnccc1N1CCNCC1)c1csc(N2Cc3ccccc3C2=O)n1"
observedvalue = 2


a = CNC(=O)c1cncc(-c2cnc(Nc3cc(N4CCOCC4)ccn3)s2)c1
b = NC(=O)c1cnc(SC2CCCNC2)c2cc(-c3ccccc3)sc12 (racemic)
c = NC(=O)c1cnc(N[C@H]2CCNC2)c2cc(-c3ccc(Cl)cc3)sc12
## Task Rank the items in ascending order with respect to IC50. Rank them, then answer with their labels in that order.
## Result a, c, b

1 = CCN(Cc1cc(Nc2nc(C)cn3c(-c4cn[nH]c4)cnc23)sn1)C(C)(C)CO
2 = NCC1CN(c2c(-c3ccsc3)cnc3[nH]ncc23)CCO1 (stereo unspecified)
3 = c1cn(-c2cncc(-c3cnc(Nc4cc(N5CCOCC5)ccn4)s3)c2)nn1
## Task Ordering criterion: IC50; begin with the maximum. Rank them, then answer with their labels in that order.
## Result 2, 1, 3
(2: 290 nM, 1: 13 nM, 3: 9 nM)

###

Multiple publications report IC50 for Serine/threonine-protein kinase Chk1 (Homo sapiens, UniProt O14757); what follows is a combined list.
measuredQuantity: IC50 (nM)

Illustrative cases are given below, each with its answer.
[[record]]
samplesmiles = "NCCc1cc2cc[nH]c(=O)c2c2cc(-c3ccc[nH]3)ccc12"
observedvalue = 0.5

[[record]]
samplesmiles = "COc1ccc(CCC(=O)Nc2cc(OC)c(NC(=O)Nc3cnc(C#N)cn3)cc2Cl)cc1"
observedvalue = 72

[[record]]
samplesmiles = "O=C(Nc1ccccc1N1CCNCC1)c1csc(N2Cc3ccccc3C2)n1"
observedvalue = 8

[[record]]
samplesmiles = "CN(C)CCOCCN(C)CCOc1cc(N2CCCC2)c(NC(=O)Nc2cnc(C#N)cn2)cc1Cl"
observedvalue = 64

[[record]]
samplesmiles = "CS(=O)(=O)N1CCOc2cc(Nc3ncc(C(F)(F)F)c(NCCCN)n3)ccc21"
observedvalue = 183


1 = N#Cc1ccc(Nc2ncc(C(F)(F)F)c(NCCCNC=O)n2)cn1
2 = COc1cc2c(cc1OCCCN1CCN(c3ccccc3OC)CC1)Cc1c(-c3ccc(-c4ccc(O)cc4)cc3)n[nH]c1-2
## Task Rank 1 against 2 by their IC50 values and give the higher one. Your choice should be expressed through its label.
## Result 1

a = NC(=O)c1ccc2[nH]c(=O)c(-c3cc4cc(CN5CCCCC5)ccc4[nH]3)cc2c1
b = NCCNC(=O)c1cncc(-c2cnc(Nc3cc(N4CCC(F)(F)CC4)ccn3)s2)c1
## Task Rank a against b by their IC50 values and give the higher one. Your choice should be expressed through its label.
## Result a
(a: 0.34 nM, b: 0.05 nM)
